Property Measured: melting point

The cases that follow already have their melting point on record.
S=C(NCc1ccccc1)N1CCc2c([nH]c3ccccc23)C1c1ccc2c(c1)OCO2 (centres unmarked) | 197 °C
Fc1cccc(CNC(=S)N2CCc3c([nH]c4ccccc34)[C@H]2c2ccc3c(c2)OCO3)c1 | 179 to 181 °C
O=C(C=C1CCCCC1)N1CCc2c([nH]c3ccccc23)[C@H]1c1ccc2c(c1)OCO2 | 116 to 118 °C
C[C@H](NC(=S)N1CCc2c([nH]c3ccccc23)[C@H]1c1ccc2c(c1)OCO2)c1ccccc1 | 117 to 121 °C
S=C(NCc1ccc2c(c1)OCO2)N1CCc2c([nH]c3ccccc23)[C@H]1c1ccc2c(c1)OCO2 | 97 to 100 °C

Returns the measured melting point for the input compound. Input: O=S(=O)(/C=C/c1ccccc1)N1CCc2c([nH]c3ccccc23)C1c1ccc2c(c1)OCO2 (centres unmarked) [Example 41a]
191 to 192 °C

And the next one, O=C(NC(=S)N1CCc2c([nH]c3ccccc23)C1c1ccc2c(c1)OCO2)c1ccccc1 (centres unmarked) ?
207 to 208 °C

Another compound to look at: C[C@H](NC(=O)N1CCc2c([nH]c3ccccc23)[C@H]1c1ccc2c(c1)OCO2)c1ccccc1
120 to 121 °C

Follow-up item: Fc1ccc(CNC(=S)N2CCc3c([nH]c4ccccc34)[C@H]2c2ccc3c(c2)OCO3)cc1
137 to 139 °C

Further, for S=C(NCc1ccccc1Cl)N1CCc2c([nH]c3ccccc23)[C@H]1c1ccc2c(c1)OCO2 ?
123 to 128 °C

Similarly, Cc1ccc(CNC(=S)N2CCc3c([nH]c4ccccc34)[C@H]2c2ccc3c(c2)OCO3)cc1C ?
138 to 142 °C
